Assay: Permeability from apical to basolateral side of the Caco-2 cell membrane at pH 7.4
Format: ADME, cell-based
Details: human, Caco-2, pH 7.4
MEASURED ATTRIBUTE: Papp A→B (nm/s)
Give bare numbers, in nm/s.

Record excerpt, results attached:
>>> experimental_value("COCC[C@H](CC1(C(=O)NCCCc2ccc(Cl)cc2)CCCC1)C(=O)O")
120
>>> experimental_value("COCC[C@H](CC1(C(=O)NC2(CO)Cc3ccccc3C2)CCCC1)C(=O)O")
10
>>> experimental_value("CCC[C@H](CC1(C(=O)Nc2nnc(CC)s2)CCCC1)C(=O)O")
90

List the reported Papp A→B of each molecule below.
1. COCC[C@H](CC1(C(=O)NCCCc2ccc(F)cc2)CCCC1)C(=O)O
2. COCC[C@H](CC1(C(=O)N[C@@H]2C[C@H]2c2ccc(OC)cc2)CCCC1)C(=O)O

1: 120; 2: 70

====

Test: Distribution coefficient, log D in n-octanol and phosphate buffer at pH 7.4
Format: physicochemical
Record form. Attribute: logD. Fill in for each entry.
One number for each entry.

>>> experimental_value("COCC[C@H](CC1(C(=O)NC2(CO)Cc3ccccc3C2)CCCC1)C(=O)O")
-0.2
>>> experimental_value("COCC[C@H](CC1(C(=O)NCCCc2ccc(F)cc2)CCCC1)C(=O)O")
0.5
>>> experimental_value("COCC[C@H](CC1(C(=O)NCCCc2ccc(Cl)cc2)CCCC1)C(=O)O")
1

List the reported logD of each molecule below.
1. COCC[C@H](CC1(C(=O)N[C@@H]2C[C@H]2c2ccc(OC)cc2)CCCC1)C(=O)O
2. CCC[C@H](CC1(C(=O)Nc2nnc(CC)s2)CCCC1)C(=O)O

0.3
0.5

====

Assay: Half life in rat at 1 mg/kg, iv and 1 mg/kg, po
Format: ADME, organism-based
Settings: in vivo
Record form. Attribute: half-life. Fill in for each entry.
One number for each entry, in h.

Record excerpt, results attached:
>>> experimental_value("COCC[C@H](CC1(C(=O)NC2(CO)Cc3ccccc3C2)CCCC1)C(=O)O")
4.8
>>> experimental_value("CCC[C@H](CC1(C(=O)Nc2nnc(CC)s2)CCCC1)C(=O)O")
1.7
>>> experimental_value("COCC[C@H](CC1(C(=O)NCCCc2ccc(F)cc2)CCCC1)C(=O)O")
2.4

Attention now turns to another entry.
What the record says about `COCC[C@H](CC1(C(=O)NCCCc2ccc(Cl)cc2)CCCC1)C(=O)O` : half-life is 1.9

====

Assay: Fraction unbound ligand in rat at 1 mg/kg, iv and 1 mg/kg, po
Format: ADME, organism-based
Details: in vivo
MEASURED ATTRIBUTE: fraction unbound
Numbers only.

Record excerpt, results attached:
>>> experimental_value("COCC[C@H](CC1(C(=O)NCCCc2ccc(F)cc2)CCCC1)C(=O)O")
0.138
>>> experimental_value("COCC[C@H](CC1(C(=O)NC2(CO)Cc3ccccc3C2)CCCC1)C(=O)O")
0.088

What the record says about `COCC[C@H](CC1(C(=O)NCCCc2ccc(Cl)cc2)CCCC1)C(=O)O` : fraction unbound is 0.083

====

Record form. Attribute: clearance. Fill in for each entry.
Assay: Clearance in rat at 1 mg/kg, iv and 1 mg/kg, po
Format: ADME, organism-based
Conditions: in vivo
Numbers only, in L/h/kg.

List the reported clearance of each compound below.
1. COCC[C@H](CC1(C(=O)NCCCc2ccc(F)cc2)CCCC1)C(=O)O
2. COCC[C@H](CC1(C(=O)NCCCc2ccc(Cl)cc2)CCCC1)C(=O)O
3. COCC[C@H](CC1(C(=O)NC2(CO)Cc3ccccc3C2)CCCC1)C(=O)O
4. CCC[C@H](CC1(C(=O)Nc2nnc(CC)s2)CCCC1)C(=O)O

1: 0.78; 2: 0.21; 3: 1.08; 4: 0.18

====

Record form. Attribute: Vd. Fill in for each entry.
Assay: Volume of distribution in rat at 1 mg/kg, iv and 1 mg/kg, po
Assay type: ADME, organism-based
Conditions: in vivo, read-out: Vdss
Remember to follow the number with its unit.

>>> experimental_value("COCC[C@H](CC1(C(=O)NCCCc2ccc(Cl)cc2)CCCC1)C(=O)O")
"0.6 L/kg"
>>> experimental_value("COCC[C@H](CC1(C(=O)NC2(CO)Cc3ccccc3C2)CCCC1)C(=O)O")
"7.5 L/kg"
>>> experimental_value("CCC[C@H](CC1(C(=O)Nc2nnc(CC)s2)CCCC1)C(=O)O")
"0.44 L/kg"

Attention now turns to another entry.
What the record says about `COCC[C@H](CC1(C(=O)NCCCc2ccc(F)cc2)CCCC1)C(=O)O` : Vd is 2.7 L/kg

The reported numbers originate from ChEMBL document CHEMBL1144531.
